Entries and their measured Population Mitochondria Different-Phenotype (%) follow.
System: U2OS
Assay: Multiplex assay against U2OS
Format: toxicity, cell-based
Conditions: human, 12 h, 10 µM, compound concentration 10 uM, replicate 2
Quick reminder: number only, in %, skip the unit.

[
  {
    "compound": "COc1ccccc1-c1cc(Nc2cccc(CS(N)(=O)=O)c2)ncn1",
    "units of measure": "%",
    "reported result": 21
  },
  {
    "compound": "N#Cc1cccc(C(=O)Nc2cc(-c3ccccc3)nn2-c2ccccc2)c1",
    "units of measure": "%",
    "reported result": 84
  },
  {
    "compound": "Cl.Cn1c2c(c3ccc(Cl)c(Cl)c31)C(C#N)C1(CCNCC1)NC2=O (centres undefined)",
    "units of measure": "%",
    "reported result": 90
  },
  {
    "compound": "CCOC(=O)CCNc1cc(N2CCc3ccccc3CC2)nc(-c2ccccn2)n1",
    "units of measure": "%",
    "reported result": 29
  },
  {
    "compound": "CC[C@H](Nc1ncnc2[nH]cnc12)c1nc2cccc(F)c2c(=O)n1-c1ccccc1 [IDELALISIB]",
    "units of measure": "%",
    "reported result": 28
  }
]

# input Provide measured Population Mitochondria Different-Phenotype (%) on U2OS for NC(=O)c1ccc2nc(-c3ccc(C4(N)CCC4)cc3)c(-c3ccccc3)n2n1 [BAY-1125976] please.
# output 23

# input Under U2OS, report Population Mitochondria Different-Phenotype (%) for CCOc1ccn(-c2ccc(F)cc2)c(=O)c1C(=O)Nc1ccc(Oc2ccnc(N)c2Cl)c(F)c1 [BMS-777607]
# output 30

# input Report measured Population Mitochondria Different-Phenotype (%) on U2OS; entry: `CC(C)c1cc(Nc2nc(N3CCC[C@H](N)C3)ncc2C(N)=O)cc(C(C)C)n1`
# output 93

# input Supply Population Mitochondria Different-Phenotype (%) measured with U2OS for `Cc1c(Nc2ccc(S(=O)(=O)N3CCN(C)CC3)cc2F)nc2ccc(Nc3cnn(C4CC4)c3)cn2c1=O` .
# output 32

----------
Test system: HEK-293T
Assay: Multiplex assay against HEK293T
Type: toxicity, cell-based
Details: human, 24 h, 1 µM, compound concentration 1 uM, replicate 2
Returns MET if the recorded Population Membrane Permeable-Phenotype (%) is greater than or equal to 7%, and NOT MET otherwise.

Known results for compounds:
[
  {
    "compound": "CC[C@@H]1C(=O)N(C)c2cnc(Nc3ccc(C(=O)NC4CCN(C)CC4)cc3OC)nc2N1C1CCCC1 [BI-2536]",
    "label value": "NOT MET"
  },
  {
    "compound": "CCOc1ccn(-c2ccc(F)cc2)c(=O)c1C(=O)Nc1ccc(Oc2ccnc(N)c2Cl)c(F)c1 [BMS-777607]",
    "label value": "MET"
  },
  {
    "compound": "C[C@@H](Oc1cc(-n2cnc3ccc(CN4CCN(C)CC4)cc32)sc1C(N)=O)c1ccccc1C(F)(F)F [GSK-461364]",
    "label value": "MET"
  },
  {
    "compound": "CN1C(=O)[C@@H](NC(=O)c2cc3ccccc3[nH]2)N=C(c2ccccc2)c2ccccc21 [DEVAZEPIDE]",
    "label value": "MET"
  },
  {
    "compound": "CC[C@H](Nc1ncnc2[nH]cnc12)c1nc2cccc(F)c2c(=O)n1-c1ccccc1 [IDELALISIB]",
    "label value": "MET"
  }
]

# input Does CC(Cc1ccc(O)c(O)c1)C(C)Cc1ccc(O)c(O)c1 (centres undefined) [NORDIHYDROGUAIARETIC ACID] have a reported Population Membrane Permeable-Phenotype (%) of at least 7%?
# output NOT MET

# input Hi team, for `Cc1ccc(S(=O)(=O)NC2c3ccccc3Oc3ccccc32)cc1` , is the recorded Population Membrane Permeable-Phenotype (%) at or above 7%?
# output MET

# input API: above_or_equal(metric=Population Membrane Permeable-Phenotype (%), cutoff=7%) for item `N#Cc1cccc(C(=O)Nc2cc(-c3ccccc3)nn2-c2ccccc2)c1`
# output MET

# input Please indicate if the recorded Population Membrane Permeable-Phenotype (%) for `CCCCN(CC)c1nc(C)nc2c1c(C)cn2-c1c(C)cc(C)cc1C.Cl` meets or exceeds 7%.
# output MET

# input Does the compound `C=CC(=O)Nc1cc(-n2c(=O)ccc3cnc4ccc(-c5ccc(NS(C)(=O)=O)cc5)cc4c32)ccc1C` have recorded Population Membrane Permeable-Phenotype (%) that is 7% or more?
# output MET

# input Identify whether the reported Population Membrane Permeable-Phenotype (%) of the following compound is 7% or greater: Oc1cccc(-c2nc(N3CCOCC3)c3oc4ncccc4c3n2)c1 [PI-103]
# output MET

# input Check this compound for Population Membrane Permeable-Phenotype (%) at or above 7%: `Cc1c(P(=S)(c2ccccc2)c2ccccc2)n2ccccc2[n+]1C/C=C/c1ccccc1.[Br-]`
# output NOT MET

# input Does the reported Population Membrane Permeable-Phenotype (%) for `Cc1ccc(NC(=O)Nc2cc(C(F)(F)F)ccc2F)cc1Nc1ccc2c(c1)NC(=O)/C2=C\c1ccc[nH]1` fall at or above the 7% mark?
# output MET

# input For this compound, is measured Population Membrane Permeable-Phenotype (%) 7% or higher? CC(C)[C@H](CO)Nc1nc(Nc2cccc(Cl)c2)c2ncn(C(C)C)c2n1 [PURVALANOLA]
# output NOT MET

# input Please tell me: is the compound `CC(C)c1cc(Nc2nc(N3CCC[C@H](N)C3)ncc2C(N)=O)cc(C(C)C)n1` at or over 7% in terms of Population Membrane Permeable-Phenotype (%)?
# output MET

# input Reported Population Membrane Permeable-Phenotype (%) reaches at least 7% for `CN(c1cc(C(F)(F)F)nc(OCCC(=O)O)n1)c1cccc2c1CCC2` ?
# output MET

# input Confirm if Population Membrane Permeable-Phenotype (%) reported for the compound `CCOC(=O)CCNc1cc(N2CCc3ccccc3CC2)nc(-c2ccccn2)n1` is 7% or above.
# output NOT MET

# input Exam item: decide whether the reported Population Membrane Permeable-Phenotype (%) for `CCCc1cc(C)[nH]c(=O)c1CNC(=O)c1cc(-c2ccc(N3CCN(C(C)C)CC3)nc2)cc2c1cnn2C(C)C` is at least 7%.
# output NOT MET

----------
Tested on: HEK-293T
Assay: Multiplex assay against HEK293T
Format: toxicity, cell-based
Conditions: human, 12 h, 1 µM, compound concentration 1 uM, replicate 2
observable: Population Mitochondria Different-Phenotype (%)
Record the value in %, omitting the unit from your answer.

# input Please give measured Population Mitochondria Different-Phenotype (%) of the following entry: `C=CC(=O)Nc1cc(-n2c(=O)ccc3cnc4ccc(-c5ccc(NS(C)(=O)=O)cc5)cc4c32)ccc1C`
# output 15

# input Please supply the value of reported Population Mitochondria Different-Phenotype (%) for the item CC(C)[C@H](CO)Nc1nc(Nc2cccc(Cl)c2)c2ncn(C(C)C)c2n1 [PURVALANOLA]
# output 33

# input State its Population Mitochondria Different-Phenotype (%) for this compound: `CCOC(=O)CCNc1cc(N2CCc3ccccc3CC2)nc(-c2ccccn2)n1`
# output 8

# input // fetch Population Mitochondria Different-Phenotype (%) given entry `Cc1ccc(S(=O)(=O)NC2c3ccccc3Oc3ccccc32)cc1`
# output 9

# input Assign Population Mitochondria Different-Phenotype (%) to the following record: C[C@@H](Oc1cc(-n2cnc3ccc(CN4CCN(C)CC4)cc32)sc1C(N)=O)c1ccccc1C(F)(F)F [GSK-461364]
# output 60

# input Return reported Population Mitochondria Different-Phenotype (%). Input compound: `Cc1c(Nc2ccc(S(=O)(=O)N3CCN(C)CC3)cc2F)nc2ccc(-c3cnn(C4CC4)c3)cn2c1=O`
# output 9

# input Consider the compound CCOc1ccn(-c2ccc(F)cc2)c(=O)c1C(=O)Nc1ccc(Oc2ccnc(N)c2Cl)c(F)c1 [BMS-777607] and give its recorded Population Mitochondria Different-Phenotype (%).
# output 16

# input Identify measured Population Mitochondria Different-Phenotype (%) corresponding to `CCCc1cc(C)[nH]c(=O)c1CNC(=O)c1cc(-c2ccc(N3CCN(C(C)C)CC3)nc2)cc2c1cnn2C(C)C`
# output 87

# input Hello, please tell me recorded Population Mitochondria Different-Phenotype (%) for this one: `Cc1c(Nc2ccc(S(=O)(=O)N3CCN(C)CC3)cc2F)nc2ccc(Nc3cnn(C4CC4)c3)cn2c1=O`
# output 29

# input State its Population Mitochondria Different-Phenotype (%): `Cc1c(P(=S)(c2ccccc2)c2ccccc2)n2ccccc2[n+]1C/C=C/c1ccccc1.[Br-]`
# output 87

# input Give the reported Population Mitochondria Different-Phenotype (%) for this compound. `CN(c1cc(C(F)(F)F)nc(OCCC(=O)O)n1)c1cccc2c1CCC2`
# output 15

# input For the compound Cl.Cn1c2c(c3ccc(Cl)c(Cl)c31)C(C#N)C1(CCNCC1)NC2=O (stereo not drawn) , report Population Mitochondria Different-Phenotype (%).
# output 7

# input Answer with reported Population Mitochondria Different-Phenotype (%) of `CC(C)c1cc(Nc2nc(N3CCC[C@H](N)C3)ncc2C(N)=O)cc(C(C)C)n1`
# output 91

# input Query Population Mitochondria Different-Phenotype (%) for `CC(/C=C1\SC(=S)N(CCCC(=O)Nc2ccc(C(=O)O)c(O)c2)C1=O)=C\c1ccccc1`
# output 20
